testTarget: SSTR4 (Homo sapiens)
Construct: host or cells: CHO-K1
Sequence (P31391 whole entry): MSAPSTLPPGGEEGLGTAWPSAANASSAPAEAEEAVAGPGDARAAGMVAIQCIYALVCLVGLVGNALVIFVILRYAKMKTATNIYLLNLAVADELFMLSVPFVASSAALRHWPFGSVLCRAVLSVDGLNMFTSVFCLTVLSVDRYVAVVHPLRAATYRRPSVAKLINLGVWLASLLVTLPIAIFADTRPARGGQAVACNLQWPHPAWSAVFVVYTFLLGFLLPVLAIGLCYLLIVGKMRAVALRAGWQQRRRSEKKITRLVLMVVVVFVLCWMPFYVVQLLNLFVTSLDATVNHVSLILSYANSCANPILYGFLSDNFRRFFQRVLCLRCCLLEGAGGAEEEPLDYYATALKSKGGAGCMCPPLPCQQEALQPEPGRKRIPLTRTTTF
experimentNotes: Inhibition of forskolin stimulated cAMP in CHO-K1 cells overexpressing SSTR4
Assay type: cell-based
conditionsUsed: read-out: SSTR4 Activity pEC50 (converted)
endpointName: EC50

C[C@H](CN1CCC1)C(=O)N[C@@H](CF)c1ccccc1 (single isomer, unassigned)	1.26 nM
Cc1ccnc(OCC(C)(C)NC(=O)C[C@@H]2CCCN2C)c1	631 nM
CCN1CCCC1CC(=O)NC(C)(C)COc1ncccc1C(F)(F)F (stereo not shown)	15.8 nM
CCN1CCC[C@H]1CC(=O)NC(C)(C)COc1ncccc1C(F)(F)F	126 nM
CN1CCCCC1CC(=O)NC(C)(C)c1cccc(Cl)c1 (stereo not shown)	39.8 nM

Problem: Data request, read-out EC50, for Cc1cccnc1OCC1(NC(=O)C[C@H]2CCCN2C)CC1
Result: 631 nM

Problem: Same lookup for Cc1c(F)cccc1C(C)(C)NC(=O)C[C@H]1CCCN1C , please.
Result: 63.1 nM

Problem: Same lookup for COc1c(C)cccc1C(C)(C)NC(=O)C[C@H]1CCCN1C , please.
Result: 158 nM

Problem: Same lookup for CC[C@H](CN1CCC1)C(=O)NC(C)(C)c1ccccc1F (single isomer, unassigned) , please.
Result: > 10000 nM
